Just for reference, PubChem BioAssay is where these values come from.

target: Follistatin-related protein 3 (Homo sapiens) (UniProt O95633); assay: FSTL3 binders on small-molecule microarrays, primary screen, biochemical, small-molecule microarray, 635 nm fluorescence (AID 1105); settings: FSTL3 binding, higher = more signal;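 note: score merges emission near 667 nm and signal to noise per printed spot across three slides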
Sequence (O95633 whole entry, looked up): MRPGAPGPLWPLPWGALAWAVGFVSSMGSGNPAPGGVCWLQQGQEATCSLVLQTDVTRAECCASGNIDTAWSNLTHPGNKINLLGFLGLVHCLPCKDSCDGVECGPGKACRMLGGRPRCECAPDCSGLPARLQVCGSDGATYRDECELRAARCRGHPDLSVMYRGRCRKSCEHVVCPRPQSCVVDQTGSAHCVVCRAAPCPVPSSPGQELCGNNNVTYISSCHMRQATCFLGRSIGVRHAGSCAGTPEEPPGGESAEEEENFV
Measurement Name: composite z-score
Answers are plain numbers.

{"Compound": "CCOC(=O)[C@H](Cc1ccccc1)NC(=O)CCC1CC(OC(=O)NCc2ccc3c(c2)OCO3)CC2(CCCC(COC(=O)NCCc3ccc(Cl)cc3)O2)O1 (stereo not given in full)", "composite z-score": 0.69}
{"Compound": "CC(=O)OC[C@H]1O[C@@H](ON=C(C)CCN2CCCCc3nc(C)c(C)cc32)[C@H](OC(C)=O)[C@@H](OC(C)=O)[C@@H]1OC(C)=O", "composite z-score": 1.28}
{"Compound": "CC(C)=NO[C@@H](C)c1cn([C@H](CO)Cc2ccccc2)nn1", "composite z-score": 0.345}
{"Compound": "COC(=O)C1=C(C)N(Cc2ccccc2)C2=C3C(=O)OCC[C@@H]3[C@@](O)(C(=O)OC)C(=O)N2[C@@H]1c1ccccc1", "composite z-score": 0.495}

Would you kindly look at the next entry?
Could you tell me which composite z-score is on file for C=CC[C@@H]1C=C[C@H](ON=C(C)CCN2CCCc3nc(C)c(C)cc32)[C@@H](CO)O1 ?
1.47

====

assay: basal HepG2 mitochondrial membrane potential changes, profiling panel, cell-based, JC-1 fluorescence, 24 h, 100 nL compound (AID 1167); details: higher = more signal; note: test concentration not given here
Hi there, I'd appreciate the recorded z-score for every entry that follows.
Answers are plain numbers.

{"Structure As Smiles": "CC(=O)OC[C@H]1O[C@H](CC=NOC[C@@H](O)COCc2ccco2)C=C[C@@H]1OC(C)=O", "Measurement Name": "z-score", "Value Reported": 0.186}

Could you tell me z-score for each of these compounds? They are listed below.
1. COc1ccc(COC(=O)NN=C2C[C@@H](O)[C@@H](O)[C@@H]3[C@@H]4C(=O)N(C(C)(C)C)C(=O)[C@@H]4CC[C@@H]23)cc1
2. CCN1C(=O)[C@H]2[C@H]3[C@H](O)[C@H](O)CC(=NOC[C@@H](O)[C@H]4O[C@@H]5OC(C)(C)O[C@@H]5[C@H]4O)[C@@H]3CC[C@H]2C1=O

[-1.08, 0.0654]

====

Hi there, I'd appreciate the recorded composite z-score for every entry that follows.
target: Follistatin (Homo sapiens); assay: follistatin binders on small-molecule microarrays, primary screen, biochemical, small-molecule microarray, 635/667 nm fluorescence (AID 1132); details: FST binding, 635 nm fluorescence, higher = more signal
Numbers only.

Sample answers from the record:
{"Compound": "COC(=O)[C@H](CCSC)NC(=O)CC=C[C@@H](C)CO", "Value Reported": 1.1}
{"Compound": "C[C@@H]1C=CCC(=O)OC[C@H](C)C(=O)N[C@@H](Cc2ccccc2)C(=O)OC1", "Value Reported": 0.927}

Could you tell me composite z-score for each of these compounds? They are listed below.
1. CCOC(=O)[C@H](CC(C)C)NC(=O)CCC1CC(OC(=O)NCc2ccc3c(c2)OCO3)CC2(CCCC(COC(=O)NCCc3ccccc3OC)O2)O1 (stereo not given in full)
2. O=C1[C@H]2[C@H]3[C@H](O)[C@H](O)CC(=NO[C@@H]4O[C@H](CO)[C@@H](O)[C@H](O)[C@H]4O)[C@@H]3CC[C@H]2C(=O)N1C1CCCCC1
3. C#CCCCON=C1C[C@@H](O)[C@@H](O)[C@@H]2[C@@H]3C(=O)N(C[C@@H]4CCCO4)C(=O)[C@@H]3CC[C@@H]12

[0.826, 0.284, 0.378]
